meta.source: PubChem BioAssay AID1159580

Recorded normalized growth for the following molecules
Assay Method Text: chemical genetic growth profiling, strain panel (AID 1159580);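 note: tested at 20 µM; growth read once vehicle control cultures reached saturation at 30 °C; 1 = growth at the plate median or of vehicle wells; lower values mean less growth of the strain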
Experimental Conditions: S. cerevisiae strains, growth OD, strain wild type, hits give low values
About 2,000 (36%) of roughly 5,500 compounds were called active. Another 18% or so got no clear call; they are omitted. This is one part of the list.

>  <Molecule>
CCS(=O)CCSP(=O)(OC)OC (stereo unspecified)

>  <normalized growth>
1.01

$$$$
>  <Molecule>
CN1CCCN=C1COC(=O)C(O)(c1ccccc1)C1CCCCC1 (stereo unspecified)

>  <normalized growth>
1

$$$$
>  <Molecule>
CN1CCC(=C2c3ccccc3Sc3ccccc32)CC1

>  <normalized growth>
0.993

$$$$
>  <Molecule>
CC1CC2C3CC(F)C4=CC(=O)C=CC4(C)C3(F)C(O)CC2(C)C1(O)C(=O)CO (stereo unspecified)

>  <normalized growth>
1.03

$$$$
>  <Molecule>
CC(C(=O)O)c1cccc(C(=O)c2ccccc2)c1 (stereo unspecified)

>  <normalized growth>
1

$$$$
>  <Molecule>
NC(=O)c1ccc[n+]([C@@H]2O[C@H](COP(=O)([O-])OP(=O)(O)OC[C@H]3O[C@@H](n4cnc5c(N)ncnc54)[C@H](O)[C@@H]3O)[C@@H](O)[C@H]2O)c1

>  <normalized growth>
0.993

$$$$
>  <Molecule>
C[C@H]1OC(n2cc(F)c(=O)[nH]c2=O)C(O)[C@@H]1O (stereo partly specified)

>  <normalized growth>
1

$$$$
>  <Molecule>
CS(=O)(=O)c1ccc(C2=C(c3ccccc3)C(=O)OC2)cc1

>  <normalized growth>
0.989

$$$$
>  <Molecule>
CC(C(=O)O)c1cccc(Oc2ccccc2)c1 (stereo unspecified)

>  <normalized growth>
0.973

$$$$
>  <Molecule>
CN(C)CC/C=C1\c2ccccc2Sc2ccc(Cl)cc21

>  <normalized growth>
0.956

$$$$
>  <Molecule>
COc1cc2c(cc1OC)CC(=O)OC2

>  <normalized growth>
1.01

$$$$

----------
Recorded normalized growth for the following compounds
Assay Method Text: chemical genetic growth profiling, strain panel (AID 1159580);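 note: tested at 20 µM; growth read once vehicle control cultures reached saturation at 30 °C; 1 = growth at the plate median or of vehicle wells; lower values mean less growth of the strain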
Experimental Conditions: S. cerevisiae deletion strains, growth OD, locus YKL190W, strain CNB1, hits give low values
The whole screen tested about 5,500 compounds, of which about 2,000 (36%) were called active. Not shown: some 18% with an inconclusive outcome. The list shows a part of the results.

>  <Compound>
COCCc1ccc(OCC(O)CNC(C)C)cc1 (stereo unspecified)

>  <normalized growth>
1.01 (inactive)

$$$$
>  <Compound>
COc1ccccc1N1CCN(S(=O)(=O)c2cc(C)c(Cl)cc2C)CC1

>  <normalized growth>
0.987 (inactive)

$$$$
>  <Compound>
NCCSSCCN

>  <normalized growth>
1.01 (inactive)

$$$$
>  <Compound>
COc1cc2c(cc1OC)C1C(=O)c3c(cc4c(c3O)C=CC(C)(C)O4)OC1CO2 (stereo unspecified)

>  <normalized growth>
1 (inactive)

$$$$
>  <Compound>
COc1cc2c(cc1OC)[C@@H]1C(=O)c3ccc4oc(C(C)C)cc4c3O[C@@H]1CO2

>  <normalized growth>
1.02 (inactive)

$$$$
>  <Compound>
OCCN1C[C@@H](O)[C@@H](O)C(O)C1CO (stereo partly specified)

>  <normalized growth>
1.02 (inactive)

$$$$
>  <Compound>
CC1=C(OS(=O)(=O)c2cc(C)c(Cl)cc2Cl)C(=O)CC1

>  <normalized growth>
0.976 (inactive)

$$$$
>  <Compound>
COc1cc2c(cc1OC)[C@@H]1C(=O)c3ccc4c(c3O[C@@H]1CO2)C=CC(C)(C)O4

>  <normalized growth>
0.986 (inactive)

$$$$
>  <Compound>
COc1cc2c(cc1OC)[C@@H]1C(=O)c3ccc(OC)c(CC=C(C)C)c3O[C@@H]1CO2

>  <normalized growth>
1.04 (inactive)

$$$$
>  <Compound>
COc1ccc2c3c1O[C@H]1C[C@@H](O)C=C[C@@]31CCN(C)C2

>  <normalized growth>
1.01 (inactive)

$$$$
>  <Compound>
CC(N)CCCC(C)(C)O (stereo unspecified)

>  <normalized growth>
0.995 (inactive)

$$$$
